# Assay Name: Plasma pharmacokinetics after single oral dose in ORA-Plus or SyrSpend SF (Example 6), LC-MS/MS
# Type: in vivo, Sprague Dawley rats
# Measurement Setup: female, Sprague Dawley, rat, plasma, po, 60 mg/kg, G14: 2HCl, 60 mg/kg single oral dose, SyrSpend; n = 3
Value Type: half-life
Phrase the answer as number then unit, nothing more needed.

Input line: What value of measured half-life is listed for CC(C)NCCCn1c(Sc2cc3c(cc2I)OCO3)nc2c(N)ncnc21 [Compound 1 2HCl] ?
Output line: 3.2 h

====

# Assay Name: Plasma pharmacokinetics after single PO or IV administration (Example 5), LC-MS/MS
# Measurement Setup: female, Sprague Dawley, rat, plasma, po, 24 mg/kg, Tmax (hr) Mean ± StdDev, Group 5: 24 mg/kg PO, 60 mM Citric acid buffer + 30% Captisol; free base
Value Type: Tmax (h)
Supply the numeric figure in h, leaving out any unit text.

Input line: What value of measured Tmax is listed for CC(C)(C)CNCCn1c(Sc2cc3c(cc2I)OCO3)nc2c(N)ncnc21 [Compound 2] ?
Output line: 1.8
